Tested system: VEGF-R (vascular endothelial growth factor receptor-2) (Rattus norvegicus)
Construct: polyhistidine (6xHIS) (N)
Sequence (O08775 786-1343): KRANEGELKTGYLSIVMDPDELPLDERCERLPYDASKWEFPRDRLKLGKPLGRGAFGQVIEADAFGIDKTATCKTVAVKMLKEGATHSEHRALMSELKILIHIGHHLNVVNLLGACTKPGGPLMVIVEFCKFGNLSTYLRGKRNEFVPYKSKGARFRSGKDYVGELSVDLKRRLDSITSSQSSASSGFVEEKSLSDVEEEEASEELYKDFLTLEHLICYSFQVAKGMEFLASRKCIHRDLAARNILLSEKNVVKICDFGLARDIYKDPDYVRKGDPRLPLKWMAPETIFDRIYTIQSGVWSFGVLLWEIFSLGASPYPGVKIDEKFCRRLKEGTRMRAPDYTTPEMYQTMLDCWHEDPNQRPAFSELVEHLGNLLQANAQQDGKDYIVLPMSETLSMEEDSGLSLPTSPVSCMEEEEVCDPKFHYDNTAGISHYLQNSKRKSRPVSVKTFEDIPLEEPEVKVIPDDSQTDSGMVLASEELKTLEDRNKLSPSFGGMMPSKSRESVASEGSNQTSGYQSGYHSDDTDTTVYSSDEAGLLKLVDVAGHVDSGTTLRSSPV
Measurement description: VEGF-R Screening Assay
Type: biochemical
Conditions used: Kinase Selectivity, Tables 2a-2k; read-out: VEGF-R IC50
Quantity kind: log10(IC50) (log10 of the value in nM)
Base-10 log of IC50, unit nM.

Query string: Query: log10(IC50); subject: CCc1ccc(C(=O)n2nc(Nc3ccc(S(=O)(=O)NCCN(C)C)cc3)nc2N)s1 [Cpd 103]
Result string: 1.65

Query string: Query: log10(IC50); subject: Nc1nc(Nc2ccc(S(N)(=O)=O)cc2)nn1C(=O)c1ccsc1 [Cpd 30]
Result string: 1.61

Query string: Query: log10(IC50); subject: Cc1ccc(F)c(C(=O)n2nc(Nc3ccc(S(N)(=O)=O)cc3)nc2N)c1F [Cpd 2]
Result string: 2.56

Query string: Query: log10(IC50); subject: Nc1nc(Nc2cccc(Cl)c2)nn1C(=O)c1c(F)cccc1F [Cpd 63]
Result string: 2.51

Query string: Query: log10(IC50); subject: Cc1ccsc1C(=O)n1nc(Nc2ccc(-n3cncn3)cc2)nc1N [Cpd 99]
Result string: 1.99

Query string: Query: log10(IC50); subject: CC(C)(C)c1ccc(C(=O)n2nc(Nc3ccc(S(N)(=O)=O)cc3)nc2N)s1 [Cpd 51]
Result string: 1.28

Query string: Query: log10(IC50); subject: CC(O)c1ccc(F)c(C(=O)n2nc(Nc3ccc(S(N)(=O)=O)cc3)nc2N)c1F (centres unmarked) [Cpd 58]
Result string: 2.62

Query string: Query: log10(IC50); subject: Nc1nc(Nc2ccccc2)nn1C(=O)c1ccccc1 [Cpd 62]
Result string: 1.81

Query string: Query: log10(IC50); subject: Nc1nc(Nc2ccc(S(=O)(=O)Nc3ccccn3)cc2)nn1C(=O)c1c(F)cccc1F [Cpd 118]
Result string: 2.60

Query string: Query: log10(IC50); subject: Cc1cc(C)c(C(=O)n2nc(Nc3ccc(NS(C)(=O)=O)cc3)nc2N)s1 [Cpd 108]
Result string: 1.48

Query string: Query: log10(IC50); subject: Nc1nc(Nc2ccc(S(N)(=O)=O)cc2)nn1C(=O)c1sccc1F [Cpd 16]
Result string: 1.14

Query string: Query: log10(IC50); subject: Nc1nc(Nc2ccc(S(N)(=O)=O)cc2)nn1C(=O)c1cccs1 [Cpd 14]
Result string: 1.41

Query string: Query: log10(IC50); subject: Nc1nc(Nc2ccccc2)n(C(=O)c2c(F)cccc2F)n1 [Cpd 124]
Result string: 3.68

Query string: Query: log10(IC50); subject: Nc1nc(Nc2ccccc2)nn1C(=O)Nc1ccccc1 [Cpd 65]
Result string: 2.26

Query string: Query: log10(IC50); subject: Nc1nc(Nc2ccccc2)nn1C(=O)c1c(F)cccc1F [Cpd 61]
Result string: 1.86

Query string: Query: log10(IC50); subject: Nc1nc(Nc2ccc(N3CCCS3(=O)=O)cc2)nn1C(=O)c1c(F)cccc1F [Cpd 117]
Result string: 2.96

Query string: Query: log10(IC50); subject: Cc1ccsc1C(=O)n1nc(Nc2ccc(N3CCNC3=O)cc2)nc1N [Cpd 113]
Result string: 1.48

The origin of these recorded values is patent US6924302B2.
